The measured values listed here are drawn from PubChem BioAssay (NCI).

Test system: RPMI-8226 leukemia
Method: NCI-60 one-dose screen, 48 h (100 = growth as untreated, 0 = no growth, -100 = all killed)
Measurement Conditions: 10 µM unless noted
Compounds without any hit were thinned out: in the full panel of roughly 83,000, 20% have a hit.
Outcome Measure: growth (%)

> print(dat)
                                    compound  outcome.measure  observed.result
 1          CCOC(=O)c1cc(CC)sc1NC(=O)CC(C)=O           growth             37.4
 2                        N#CCc1cccc2ccccc12           growth              103
 3  CCCCCCCCCCCCCCCc1ccc(C(=O)C[n+]2ccccc2)cc1           growth            -62.2
 4                     O=C1Nc2ccc(Br)cc2C1=O           growth             96.4
 5                          CCSc1nc2ccccc2o1           growth              104
 6  O=C1C=Cc2ccccc2/C1=C/c1nc(-c2ccccc2)oc1O           growth              104
 7                  Nc1ccc(Oc2ccccc2)c(Cl)c1           growth              101
 8  CCN(CC)CC(O)CNc1ccc(NCC2CO2)c2c1C(=O)c1ccccc1C2=O (stereo unspecified)           growth            -40.8
 9  CC[n+]1ccc(Nc2ccc(NC(=O)c3ccc(Nc4cc[n+](CC)c5ccc([N+](=O)[O-])cc45)cc3)cc2)cc1           growth             41.9
10  CCOC(=O)C1=C(C(=O)c2ccccc2)C(c2cccc([N+](=O)[O-])c2)C(C(=O)c2ccccc2)=C(C(=O)OCC)N1           growth             32.8
11  COc1cc(OC)c(/C=C/c2c3ccccc3cc[n+]2C)c(OC)c1           growth             6.51

* * *

System: PC-3 prostate
Method: NCI-60 one-dose screen, 48 h
Measurement Conditions: 10 µM unless noted
Compounds without any hit were thinned out: in the full panel of roughly 83,000, 20% have a hit. Calls of active or inactive are those of the source. How the source made its calls: active means growth percent below 10; inactive means the rest.
Labels: active, inactive

> print(dat)
                                    molecule  assayed.target  class.label
 1       O=C1C=CC(=O)c2c(O)c(CO)c(CO)c(O)c21   PC-3 prostate     inactive
 2               CCCCCCCCc1cc(Cl)c(O)c(Cl)c1   PC-3 prostate     inactive
 3             O=C(c1ccccc1)c1cc2ccccc2oc1=O   PC-3 prostate     inactive
 4  c1ccc(C2NCCNC2c2ccccc2)cc1 (centres undefined)   PC-3 prostate     inactive
 5  COC(=O)c1cc([N+](=O)[O-])cc([N+](=O)[O-])c1Cl   PC-3 prostate     inactive
 6  COC(=O)C(=[N+]=[N-])C(=O)c1ccc([N+](=O)[O-])o1   PC-3 prostate     inactive
 7  COc1cc2c(c(OC)c1OC)-c1ccc(NCc3ccccc3)c(=O)cc1[C@@H](NC(C)=O)CC2   PC-3 prostate     inactive
 8                  NNc1cccc([N+](=O)[O-])c1   PC-3 prostate     inactive
 9  CCCCCCCCC(=O)OCCCC(CCC(CCC1CCCO1)OC(=O)CCCCCCCC)OC(=O)CCCCCCCC (centres undefined)   PC-3 prostate     inactive
10       CC/C(=C(/CC)c1ccc(O)cc1)c1ccc(O)cc1   PC-3 prostate     inactive
11  COC(=O)Nc1nc2ccc(C3(c4ccc(F)cc4)OCCO3)cc2[nH]1   PC-3 prostate     inactive
12         O=[N+]([O-])C=C(c1ccccc1)c1ccccc1   PC-3 prostate     inactive
13  COc1ccc(NC(=O)/C(=C/N2C(=O)/C(=C/c3ccc(OC)c(OC)c3)NC2=S)C(C)=O)cc1   PC-3 prostate     inactive
14  CCCCCCCCCCCCCCCC[N+]1(C)CCCC1c1cccnc1 (centres undefined)   PC-3 prostate       active
15            CC(C)(C)c1ccc(O)c(-c2ccccc2)c1   PC-3 prostate     inactive
16        CCOC(=O)NC(/C=C/c1ccccc1)NC(=O)OCC   PC-3 prostate     inactive
17  COC(=O)c1nc(=S)[nH]c(C(=O)OC)c1C(=O)c1ccc(Cl)c(Cl)c1   PC-3 prostate     inactive
18                                  OCCOSCCO   PC-3 prostate     inactive
19                     NC(=S)N/N=C/c1ncccc1O   PC-3 prostate     inactive
20                 CC(=O)Nc1ccc(C(=O)CCl)cc1   PC-3 prostate     inactive
21                        Cc1cc(I)nc2ccccc12   PC-3 prostate     inactive
22  OC(Cc1cc(CC(O)(C(F)(F)F)C(F)(F)F)nc(CC(O)(C(F)(F)F)C(F)(F)F)c1)(C(F)(F)F)C(F)(F)F   PC-3 prostate       active
23             Nc1ccc(C(=O)/C=C/c2ccccc2)cc1   PC-3 prostate     inactive
24     COc1cc(/C=C/c2ccnc3ccccc23)cc(OC)c1OC   PC-3 prostate     inactive
